Test system: Caco-2
Assay: Apparent permeability across human Caco-2 cells
Type: ADME, cell-based
endpoint.name: Papp

Item under review: `Cn1c(Cc2ccc(Br)c(Oc3cc(Cl)cc(C#N)c3)c2F)n[nH]c1=O` . Reported Papp?
15.1 10^-6 cm/s

###

Target: UniProt Q72547
Experiment: Binding affinity to wild type HIV1 reverse transcriptase by SPR assay
pKd: −log10 of the molar value.
Values of pKd greater than or equal to 6 map to y; values below map to n.

Worked set:
1. Cn1c(Cc2cccc(Oc3ccccc3)c2)n[nH]c1=O: n
2. COc1c(Br)ccc(Cc2n[nH]c(=O)n2C)c1F: n
3. Cn1c(Cc2ccc(Br)c(Oc3cc(Cl)cc(C#N)c3)c2F)n[nH]c1=O: y
4. Cn1c(Cc2ccc(Br)cc2)n[nH]c1=O: n

Can `Cn1c(Cc2ccc(Br)cc2F)n[nH]c1=O` be said to have pKd at or above 6?
n

###

Test system: Human immunodeficiency virus 1
Test: Antiviral activity against HIV1 with reverse transcriptase Y181C mutant in MT4 cells assessed as inhibition of virus-induced cytopathic effect
Format: functional, organism-based
Conditions: Human immunodeficiency virus 1, MT4
endpoint.name: EC50
Show the value, then the unit it is measured in.

Item under review: `Cn1c(Cc2ccc(Br)c(Oc3cc(Cl)cc(C#N)c3)c2F)n[nH]c1=O` . Reported EC50?
5 nM

###

Experiment: Cmax in dog at 0.5 mg/kg, iv or 2 mg/kg, po
Assay type: ADME, organism-based, Canis lupus familiaris
Details: in vivo
endpoint.name: Cmax (nM)
Report as a plain number; the unit nM is understood.

Item under review: `Cn1c(Cc2ccc(Br)c(Oc3cc(Cl)cc(C#N)c3)c2F)n[nH]c1=O` . Reported Cmax?
1300

###

Tested on: Human immunodeficiency virus 1
Experiment: Antiviral activity against HIV1 with wild type reverse transcriptase in MT4 cells assessed as inhibition of virus-induced cytopathic effect
Type: functional, organism-based
Conditions: Human immunodeficiency virus 1, MT4
Below, each entry is listed with its recorded EC50.
Report as a plain number; the unit nM is understood.

Field: example entries. Status: answers known.
1. Cn1c(Cc2ccc(Cl)c(Oc3cc(Cl)cc(C#N)c3)c2F)n[nH]c1=O: 8
2. C[C@H]1NC(Cc2ccc(Cl)c(Oc3cc(Cl)cc(C#N)c3)c2F)=NNC1=O: 8
3. CCc1ccc(Cc2n[nH]c(=O)n2C)c(F)c1Oc1cc(Cl)cc(C#N)c1: 2
4. Cn1c(Cc2ccc(C3CC3)c(Oc3cc(Cl)cc(C#N)c3)c2F)n[nH]c1=O: 2

Item under review: `Cc1cc(Cc2ccc(Cl)c(Oc3cc(Cl)cc(C#N)c3)c2F)n[nH]c1=O` . Reported EC50?
1

###

Assay: Bioavailability in dog at 2 mg/kg, po
Assay type: ADME, organism-based, Canis lupus familiaris
Conditions: in vivo
endpoint.name: bioavailability

Item under review: `Cn1c(Cc2ccc(Br)c(Oc3cc(Cl)cc(C#N)c3)c2F)n[nH]c1=O` . Reported bioavailability?
74%

###

Human immunodeficiency virus type 1 reverse transcriptase (Human immunodeficiency virus 1): reported IC50 for various compounds.

1. Cn1c(Cc2cccc(Oc3ccccc3)c2)n[nH]c1=O: 18000 nM

Note: attention shifts to another entry.
Param readout= IC50; system= Human immunodeficiency virus type 1 reverse transcriptase (Human immunodeficiency virus 1); entry= `C[C@H]1CC(Cc2ccc(Cl)c(Oc3cc(Cl)cc(C#N)c3)c2F)=NNC1=O` ; returns value.
17 nM
